Assignment: determine reported composite z-score for the given compounds.
# assayComment: small molecules captured by biotinylated probe aFGF10 – biochemical, small-molecule microarray, fluorescence 635/667, stem cell growth factor project, primary screen (AID 1071);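 further: score merges 667 nm spot intensity and signal to noise from triplicate slides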
# conditionInfo: higher = more signal
Hey, just send me the number, nothing else.

So, CC(=O)c1ccc(C(O)C2C=CC3C(=O)N(c4ccccc4)C(=O)C3N2Nc2ccc(C(C)C)cc2)cc1 (configuration not stated) ? Its composite z-score was 0.897

So, COC(=O)[C@@]1(Cc2ccc(OC)cc2)[C@H]2c3cc(C(=O)N4CCCC4)n(Cc4ccc(C(F)(F)F)nc4)c3C[C@H]2CN1C(=O)c1ccccc1 ? Its composite z-score was 0.999

So, CN(C)CCCNC(=O)[C@@]1(C)c2ccccc2C(=O)N(Cc2ccc(OC(F)(F)F)cc2)[C@H]1c1ccc(CO)cc1 ? Its composite z-score was -0.959

So, O=C1[C@H]2C=C(I)[C@H](C[C@@H]2c2ccccc2)[C@@]12CO2 ? Its composite z-score was -0.142

So, CC(C)(C)N1CC=CC23O[C@@H]4/C=C\CCCOC(=O)C4[C@H]2C(=O)N(CCCO)[C@@H]3C1=O (some centres not stated) ? Its composite z-score was -0.147

So, CN(C)CCCCNC(=O)[C@H]1C[C@H]2C(=O)NCC(=O)N2[C@H]1c1ccc(O)cc1 ? Its composite z-score was -0.814

So, COc1ccc([Si](C)(C)[C@H]2[C@H](CCO)O[C@@]3(C(=O)N(Cc4cccc(N5C(=O)c6ccccc6Oc6ccccc65)c4)c4ccccc43)[C@@H]2C)cc1 ? Its composite z-score was 0.462

* * *

# assayComment: JC-1 mitochondrial signal, unstimulated MM1S myeloma – cell-based, JC-1 fluorescence, 24 h, 100 nL compound, profiling panel (AID 1170); further: test concentration not given here
# conditionInfo: MM1S mitochondrial potential, higher = more signal
measurementName: z-score

So, O=C1[C@H]2C=C(I)[C@H](C[C@@H]2OCCCCCCO)[C@@]12CO2 ? Its z-score was -0.571

So, C[C@@H]1NC(=O)C([C@@H](C)OCc2ccccc2)NC(=O)[C@@]23C(=O)N[C@@H](Cc4ccccc4)C2[C@H](C)[C@@]2(C)O[C@H]2C3/C=C/C/C=C\CNC1=O (stereo not given in full) ? Its z-score was 0.186

So, CCC(CC)C(O)C1C=CC2C(=O)N(c3ccccc3)C(=O)C2N1Nc1ccccc1F (stereo not given) ? Its z-score was -0.817

So, [N-]=[N+]=NCc1ccccc1[C@@H]1OC(c2ccc(OCCCO)cc2)=N[C@]1(Cc1ccccc1N=[N+]=[N-])C(=O)O ? Its z-score was 1.44

So, CC(C)(C)OC(=O)CC[C@@]1(C(=O)NCCN2CCOCC2)N=C(c2ccc(OCCCO)cc2)O[C@@H]1c1ccccc1CN=[N+]=[N-] ? Its z-score was -0.586

So, C=CC[C@@]1(C(=O)OC)N=C(c2ccc(OCCCO)cc2)O[C@@H]1c1ccccc1N=[N+]=[N-] ? Its z-score was 0.0955

So, CCCCN1CC=CC23O[C@@H]4/C=C\CCCOC(=O)C4[C@H]2C(=O)N(C(CO)C(C)C)[C@@H]3C1=O (stereo not given in full) ? Its z-score was -0.608

So, CN(C)CCCCNC(=O)[C@H]1C[C@H]2C(=O)NCC(=O)N2[C@H]1c1ccc(O)cc1 ? Its z-score was -0.371

So, C=CCNC(=O)[C@@H]1[C@H]2C(=O)O[C@H](c3ccccc3)[C@H](c3ccccc3)N2[C@H](c2ccc(OCCO)cc2)[C@@]12C(=O)Nc1ccc(C#CC3(O)CCCCCC3)cc12 ? Its z-score was -0.962

So, CCOC(=O)C[C@H]1[C@H](OC(=O)Cc2ccc3c(c2)OCO3)[C@@H](NC(=O)c2ccc3ccccc3n2)c2cc(OCCCO)ccc2N1C(=O)Cc1ccc(OC)cc1 ? Its z-score was -0.882

So, CC1CC/C=C\[C@H]2OC34C=CCN(c5ccc6ccccc6c5)C(=O)[C@H]3N(C(C)CO)C(=O)[C@@H]4C2C(=O)O1 (stereo not given in full) ? Its z-score was -0.532

So, CN1C(=O)[C@@H]2[C@@H](CC(COc3ccccc3)=C3[C@@H](CCc4ccccc4)OB(O)C[C@@H]32)C1=O ? Its z-score was -0.904

So, O=C(N1CCOCC1)[C@@]1(Cc2ccccc2)COC(c2ccc(OCCCO)cc2)=N1 ? Its z-score was -0.095

So, [N-]=[N+]=Nc1ccccc1[C@@H]1OC(c2ccc(OCCCO)cc2)=N[C@]1(Cc1ccccc1)C(=O)NCCN1CCOCC1 ? Its z-score was -0.469

So, CC(C)NC(=O)[C@@]1(C)c2ccccc2C(=O)N(Cc2ccccc2)[C@H]1c1ccc(CO)cc1 ? Its z-score was 1.02

* * *

# assayComment: probe aNog binding to arrayed compounds – biochemical, biotinylated probe, 635/667 nm fluorescence, primary screen (AID 1115);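 further: probe is biotinylated aNog protein used at 0.15 µg/mL for 1 h at 4 C; z-score combines 667 nm fluorescence of each spot with its signal to noise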
# conditionInfo: small-molecule microarray, higher = more signal
measurementName: composite z-score
Hey, just send me the number, nothing else.

So, O=C1O[C@H](c2ccccc2)[C@H](c2ccccc2)N2[C@H]1[C@@H](C(=O)N1CCN(c3ncccn3)CC1)[C@]1(C(=O)Nc3ccc(C#CCCO)cc31)[C@H]2c1ccc(O)cc1 ? Its composite z-score was -0.0927

So, CC(C)=CCCC(C)=CC(O)C1C=CC2C(=O)NC(=O)C2N1Nc1ccccn1 (configuration not stated) ? Its composite z-score was -0.0116

So, CC1CC/C=C\[C@H]2OC34C=CCN(c5ccc(Cl)cc5)C(=O)[C@H]3N(CCCCCCO)C(=O)[C@]4(C)C2C(=O)O1 (some centres not stated) ? Its composite z-score was 0.0112

So, COC(=O)[C@@]1(Cc2ccc(F)cc2)[C@H]2c3cc(C(=O)N4CCCC4)n(Cc4cc(F)cc5c4OCOC5)c3C[C@H]2CN1C(=O)c1ccccc1 ? Its composite z-score was -0.694

So, O=C1C[C@@](C(=O)NCc2ccccc2)(c2ccc([N+](=O)[O-])cc2)[C@@H](c2ccc(CO)cc2)N1C1CCCCC1 ? Its composite z-score was 0.786

So, C[N+](C)(C)CCCC[C@@H]1NC(=O)[C@@H]2C[C@H](C(=O)NCc3ccc(F)cc3)[C@H](c3ccc(O)cc3)N2C1=O ? Its composite z-score was -0.28

So, CC1CC/C=C\[C@H]2OC34C=CCN(Cn5nnc6ccccc65)C(=O)[C@H]3N(CCCCCCO)C(=O)[C@@H]4C2C(=O)O1 (some centres not stated) ? Its composite z-score was 0.0021

* * *

# assayedTarget: Streptavidin (Streptomyces avidinii)
# assayComment: compounds binding control protein streptavidin – biophysical, small-molecule microarray, 635/667 nm fluorescence, artefact control for SMM compound annotation, primary screen (AID 1147);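 further: signal reflects streptavidin binding to arrayed compounds as a control protein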
# conditionInfo: higher = more signal
measurementName: composite z-score
Hey, just send me the number, nothing else.

So, COc1cc(CO)cc(I)c1O[C@H]1C=C(C(=O)NCCO)C[C@@H](NC2CCCCCC2)[C@@H]1O ? Its composite z-score was -0.0211

So, COC(=O)[C@@]1(Cc2ccc(F)cc2)[C@H]2c3cc(C(=O)N4CCCC4)n(Cc4cc(F)cc5c4OCOC5)c3C[C@H]2CN1C(=O)c1ccccc1 ? Its composite z-score was 1.57

So, COCCOC(=O)N1C(=O)[C@@]2(c3ccccc31)[C@H](c1ccc(O)cc1)N1[C@H](c3ccccc3)[C@H](c3ccccc3)OC(=O)[C@H]1[C@@H]2C(=O)N1CCCCCCC1 ? Its composite z-score was 3.03

So, CC1CC/C=C\[C@H]2OC34C=CCN(Cc5ccccc5)C(=O)[C@H]3N(CCCCCCO)C(=O)[C@@H]4C2C(=O)O1 (stereo partly drawn) ? Its composite z-score was -0.871

So, COc1ccc(C(=O)Nc2cccc(CN3C(=O)[C@@]4(O[C@@H](CC(=O)N5CCC[C@H]5CO)[C@H]([Si](C)(C)c5ccc(OC)cc5)[C@H]4C)c4ccccc43)c2)cc1 ? Its composite z-score was 0.621

So, COCCOC(=O)N1C(=O)[C@@]2(c3cc(C#CCCO)ccc31)[C@H](c1ccc(OCCO)cc1)N1[C@H](c3ccccc3)[C@H](c3ccccc3)OC(=O)[C@H]1[C@@H]2C(=O)N1CCCCCCC1 ? Its composite z-score was 1.79

So, [N-]=[N+]=Nc1ccccc1[C@@H]1OC(c2ccc(OCCCO)cc2)=N[C@]1(CCS(=O)(=O)c1ccccc1)C(=O)NCC(O)CO (stereo partly drawn) ? Its composite z-score was 1.54

So, CC(C)NC(=O)[C@@H]1c2ccccc2C(=O)N(Cc2ccccc2C(F)(F)F)[C@H]1c1ccc(CO)cc1 ? Its composite z-score was -0.962

So, COc1ccc([Si](C)(C)[C@@H]2[C@@H](CC(=O)N3CCC[C@H]3CO)O[C@]3(C(=O)N(Cc4ccc(N5CCOC5=O)cc4)c4ccccc43)[C@H]2C)cc1 ? Its composite z-score was 0.084

So, COC(=O)[C@@]1(Cc2ccc(OC)cc2)[C@H]2c3cc(C(=O)N(C)C)[nH]c3C[C@H]2CN1C(=O)c1ccccc1 ? Its composite z-score was 0.226

So, C=CCOC(=O)[C@H]1[C@@H]2C(=O)O[C@@H](c3ccccc3)[C@@H](c3ccccc3)N2[C@@H](c2ccc(OCCOC(=O)[C@@H]3C[C@@H]4C(=O)N[C@@H](CCCCNC(C)=O)C(=O)N4[C@@H]3c3cccc(OCCO)c3)cc2)[C@]12C(=O)Nc1ccccc12 ? Its composite z-score was -0.35

So, CC(C)(C)N1CC=CC23O[C@@H]4/C=C\CCCOC(=O)C4[C@H]2C(=O)N(CCCO)[C@@H]3C1=O (stereo partly drawn) ? Its composite z-score was -0.773

So, O=C(N1CCOCC1)[C@@]1(Cc2ccccc2)COC(c2ccc(OCCCO)cc2)=N1 ? Its composite z-score was 0.647
